Test: physchem
Details: 20% aqueous hpcd
Could you please report measured solubility for the items listed next?
Please state the figure in mg/mL; there is no need to write the unit.

Form field: reported solubility of O=C(O)CCCc1ccc(N(CCCl)CCCl)cc1
13.1

solubility lookup needed for N[C@@H](Cc1ccc(N(CCCl)CCCl)cc1)C(=O)O , thanks.
24.8

====

Assay: physchem
Details: 3% aqueous hpcd
Measurement Type: solubility at 84 h (µg/mL)
Answer with a number only, understood to be in µg/mL.

Returns the measured solubility at 84 h for the input compound. Input: O=C(O)CCCc1ccc(N(CCCl)CCCl)cc1 [Chlorambucil]
680

====

Test: Phase-solubility experiments in aqueous HPCD at 30.0±0.2°C (chlorambucil, lomustine, melphalan)
Conditions: 1% w/w aqueous hpcd
Measurement Type: solubility (µg/mL)
Expressed in µg/mL, but write only the number.

Quick one: solubility for O=NN(CCCl)C(=O)NC1CCCCC1 ?
380

====

Assay: Phase-solubility experiments in aqueous HPCD at 30.0±0.2°C (chlorambucil, lomustine, melphalan)
Details: 25% w/w aqueous hpcd
Measurement Type: solubility (µg/mL)
Use µg/mL as the unit, but write only the number.

Which solubility is listed for O=NN(CCCl)C(=O)NC1CCCCC1 [Lomustine] ?
8900

====

Test: Solubilizing effect of a 50% w/w solution of HPCD on steroids and CDS
Details: 50% w/w aqueous hpcd
Measurement Type: solubility (mg/mL)
Reply numerically in mg/mL, unit not repeated.

Which value of solubility has been reported for CN1C=CCC(C(=O)O[C@H]2CC[C@H]3[C@@H]4CCC5=CC(=O)CC[C@]5(C)[C@H]4CC[C@]23C)=C1 in the records?
17.1

Find the recorded solubility belonging to C[C@]12CC[C@@H]3c4ccc(O)cc4CC[C@H]3[C@@H]1C[C@@H](O)[C@@H]2O and report it.
40

Form field: reported solubility of COc1ccc2c(c1)CC[C@@H]1[C@@H]2CC[C@]2(C)[C@@H](O)CC[C@@H]12
30

====

Test: Maximum concentrations of selected CDS in varying concentrations of selected cyclodextrins
Format: physicochemical
Conditions: 20% hebcd
Measurement Type: solubility (µg/mL)
Answer in µg/mL, number only, no unit symbol.

# solubility lookup, item CN1C=CCC(C(=O)O[C@H]2CC[C@H]3[C@@H]4CCc5cc(O)ccc5[C@H]4CC[C@]23C)=C1 [Example E2-CDS]
3090

====

Assay: physchem
Settings: 10% aqueous hpcd
Measurement Type: solubility (mg/mL)
All answers are understood in mg/mL, so give the number only.

Given N[C@@H](Cc1ccc(N(CCCl)CCCl)cc1)C(=O)O , state its recorded solubility.
13.4

====

Assay: physchem
Method: For comparison, the solubilities of the drugs in water were also determined. • Wavelength: 245 nm • Column: Waters µBondapak CN, 3.9 mm (id.) x 30 cm • Mobile phase: acetonitrile, acetic acid, water (60:1:39) containing 0.1% 1-hexasulfonic acid, sodium salt • Flow rate: 2.00 mL/min. • Wavelength: 263 nm • Column: ASI C18, 10 µm, 3.9 mm (i.d.) x 30 cm • Mobile phase: acetonitrile, water (55:45) • Flow rate: 1.00 mL/min. […]
Measurement Type: Increase in Solubility (HPCD/water)

* O=C1NC(=O)C(c2ccccc2)(c2ccccc2)N1 [Phenytoin] | ∼450

====

Experiment: Phase-solubility experiments in aqueous HPCD at 30.0±0.2°C (chlorambucil, lomustine, melphalan)
Conditions: 5% w/w aqueous hpcd
Measurement Type: solubility (µg/mL)
Use µg/mL as the unit, but write only the number.

Can you look up the measured solubility of O=NN(CCCl)C(=O)NC1CCCCC1 for me?
1680
